Measurement Notes: Acute food intake in 24-h food-deprived rats, i.p. dosing
Format: in vivo, rat
Condition Summary: 24-h food-deprived rats, i.p.
Procedure: Feeding experiments. Acute experiments. Food intake was measured in 24-h food-deprived rats (Navarro, et al., J. Neurochem., 67:1982-1991 (1996)), administering drugs 15 min before food presentation. Subchronic experiments. […] The effects of systemically administered OEA or an OEA-like compound or OEA-like modulator on food intake in rats can be assessed using a 24 h fast. […] To define the selectivity of this response, various OEA analogs were evaluated for their ability to produce hypophagia.
Property Name: food intake (hypophagia)

INSERT INTO results (compound, endpoint_result) VALUES
  ('CCCCC/C=C\C/C=C\C/C=C\C/C=C\CCCC(=O)NCCO [anandamide, arachidonylethanolamide]', 'no effect'),
  ('CCCCCCCC/C=C\CCCCCCCC(=O)O [oleic acid]', 'no effect');

----------
Test Target: human PPARα (Homo sapiens, UniProt Q07869)
Construct: expressed in transfected cells; host or cells: HeLa (clonal reporter line HLR, stably transfected with pFA-PPARα)
Sequence (Q07869 239-466 limits assumed): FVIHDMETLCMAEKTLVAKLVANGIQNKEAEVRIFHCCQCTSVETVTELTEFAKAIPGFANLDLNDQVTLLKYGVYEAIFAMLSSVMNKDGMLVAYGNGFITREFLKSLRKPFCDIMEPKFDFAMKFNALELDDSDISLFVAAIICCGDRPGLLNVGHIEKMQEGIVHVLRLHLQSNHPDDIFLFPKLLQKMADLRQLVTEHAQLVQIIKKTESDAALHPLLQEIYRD
Measurement Notes: GAL4 chimeric receptor transactivation assay in HeLa cells, PPARα
Assay type: cell-based
Condition Summary: HeLa transactivation assay, 7 hours; read-out: EC50 for PPARα activation
Property Name: EC50
Report field: quantity (unit follows the number).

// query Param item = CCCCCCCC/C=C\CCCCCCCC(=O)NCCO [OEA, Z-2-hydroxyethyl octadec-9-enamide] ; retrieve measured EC50.
// result 120 nM

----------
Test Target: human PPARα (Homo sapiens)
Construct: expressed in transfected cells; host or cells: HeLa (clonal reporter line HLR, stably transfected with pFA-PPARα)
Measurement Notes: GAL4 chimeric receptor transactivation assay in HeLa cells, PPARα
Format: cell-based
Property Name: pEC50
// pEC50 is dimensionless: -log10 of concentration (M)

// query Could you tell me which pEC50 is on file for "CCCCCCCC/C=C\CCCCCCCC(=O)O" ?
// result 4.99

----------
Test Target: human PPARδ (Homo sapiens, UniProt Q03181)
Sequence (Q03181 211-439 limits assumed): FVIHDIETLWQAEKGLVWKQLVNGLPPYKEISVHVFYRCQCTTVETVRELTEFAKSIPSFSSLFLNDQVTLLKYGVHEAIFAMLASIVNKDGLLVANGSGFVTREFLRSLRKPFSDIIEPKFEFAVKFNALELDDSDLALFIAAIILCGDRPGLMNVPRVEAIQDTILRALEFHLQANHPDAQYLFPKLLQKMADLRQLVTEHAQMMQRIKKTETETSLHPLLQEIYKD
Measurement Notes: GAL4 chimeric receptor transactivation assay in HeLa cells, PPARδ
Condition Summary: read-out: EC50 for PPARβ activation
Property Name: pEC50
Conceptually, pEC50 converts a concentration in mol/L into minus its log10.

// query Sample CCCCCCCC/C=C\CCCCCCCC(=O)NCCO [OEA, Z-2-hydroxyethyl octadec-9-enamide] — what was its pEC50?
// result 5.96
